Property: GI50; scope: individual compounds
Tested on: IGROV-1
Assay: NCI tumour cell line growth inhibition, 48 h
The source made the active and inactive calls. No stated cut-off is given here; in the data, active = GI50 up to about 1.1 µM and inactive = higher.

Before answering, review these 5 worked examples.
c1ccc2c(c1)cc(C1NCCc3nc[nH]c31)c1ccccc12 (stereo unspecified); > 54.6 µM (inactive)
Oc1ccc(O)c(-n2cccn2)c1; > 100 µM (inactive)
CC(C)=CCN1c2ccccc2NC(=O)CC1C (stereo unspecified); > 100 µM (inactive)
COc1ccc(/C(=N/O)c2ccccc2C2=Nc3ccccc3C(NCc3ccccc3)O2)cc1C (stereo unspecified); 40.5 µM (inactive)
O=C(/C=C/c1ccc(-c2ccccc2)cc1)NCc1ccc(C(=O)NCc2ccccc2)cc1; > 100 µM (inactive)

Now let's try a different one.
response.value for `CCOC(=O)Cc1ccc(Nc2nc3ccccc3nc2C(=O)OCC)cc1` (field: GI50) = 57.5 µM (inactive)

----------
Tested on: NCI-H522
Test: NCI tumour cell line growth inhibition, 48 h
Calls of active or inactive are those of the source. No stated cut-off is given here; in the data, active = GI50 up to about 1.1 µM and inactive = higher.
Listed compounds paired with reported GI50

Look over these answered cases.
CCOc1cc(/C=N/c2nc3cc4sc(/N=C/c5ccc(O)c(OCC)c5)nc4cc3s2)ccc1O; 50.4 µM (inactive)
CC1OC(OC2C(O)C(O)C(O)C(O)C2O)C(N)CC1NC(=N)C(=O)O (stereo not given); > 100 µM (inactive)
CC(=O)OCC1OC(n2cnc3c(I)nc(I)nc32)C(OC(C)=O)C1OC(C)=O (stereo not given); 1.91 µM (inactive)
CC(=O)NC1C(O)C(O)C(CO)OC1n1ncc(=O)[nH]c1=O (stereo not given); > 100 µM (inactive)
CCOc1ccc(NC(=O)C(=O)Nn2c(N)nnc2N)cc1; > 100 µM (inactive)

GI50 recorded for this compound, `Cc1sc2nc3n(c(=O)c2c1C)N=C(c1ccccc1)CS3` , is > 100 µM (inactive)

Lab book: GI50 of `C#CCN(C)C(=O)N(CC#C)N=O` noted as > 100 µM (inactive)

Please fill in: GI50 reported for O=S(=O)(CC(O)C(Cl)(Cl)Cl)NNc1ccccc1 (stereo not given) = > 100 µM (inactive)

GI50 measured on CCCCCCCCCCCCCCCC(=O)OCC1OC(n2ccc(N)nc2=O)C(O)C1O (stereo not given) = 3.08 µM (inactive)

GI50 recorded for this compound, COc1ccc(N2C(=O)C3ON(Cc4ccc(CC(N)=O)cc4)C(c4c5ccccc5c(C)c5ccccc45)C3C2=O)cc1 (stereo not given) , is 20 µM (inactive)

----------
Recorded GI50 values for a group of compounds are listed next.
System: UACC-257
Experiment: NCI tumour cell line growth inhibition, 48 h
The source made the active and inactive calls. Rule as the data show it: active = GI50 up to about 1.1 µM and inactive = higher.

Cc1ccc(/N=N/C(=O)NNc2ccc(C)cc2Br)c(Br)c1; 26.8 µM (inactive)

// recorded GI50 for `CC(C)OC(=O)[C@@H](O)[C@H](CO)C1=CC([Si](C)(C)c2ccccc2)=CON1` : > 100 µM (inactive)

Notebook: `O=c1cc(CC(O)(C(F)(F)Cl)C(F)(F)Cl)[nH]n1-c1ccccc1` , GI50 read as > 100 µM (inactive)

----------
System: SF-539
Experiment: NCI tumour cell line growth inhibition, 48 h
Active and inactive are the calls of the source. Rule as the data show it: active = GI50 up to about 1.1 µM and inactive = higher.
observed-property: GI50

O=C1SC(c2ccccc2)(c2ccccc2)c2ccccc21; > 100 µM (inactive)
Cc1cn(C2CC(N=[N+]=[N-])C(CO)O2)c(=O)n(CCCCBr)c1=O (stereo not drawn); > 100 µM (inactive)
N#Cc1ccccc1Sc1ccccc1N; > 100 µM (inactive)
COc1cc(N(CCC#N)CCC#N)ccc1/C=N\NC(=O)c1ccc(C)cc1; > 100 µM (inactive)
O=C1/C(=C/c2cccc(Cl)c2)CCCc2ccccc21; 17.9 µM (inactive)

So, CC(=O)Nc1ccccc1[S+]([O-])c1ccccc1 (stereo not drawn) ? Its GI50 was > 100 µM (inactive)

Record summary for OCC1=CC(NC2CC(CO)C(O)C(O)C2O)C(O)C(O)C1O (stereo not drawn) : reported GI50 = > 100 µM (inactive)

Reported GI50 ( `COC(=O)C1CCN(C(=O)OC(C)(C)C)CC1` ) = > 100 µM (inactive)

Note to self: GI50 recorded for `Cn1c(N)c(-c2c3ccccc3nc3ccccc23)c(=O)n(C)c1=O` was > 100 µM (inactive)

Kindly note the recorded GI50 for Clc1ccc(COC(Cn2ccnc2)c2ccc(Cl)cc2Cl)cc1 (stereo not drawn) [ECONAZOLE NITRATE] , which is 13.6 µM (inactive)

The compound listed as CC1Cc2cc(O)ccc2C2[C@@H]1C1CC[C@H](O)[C@@]1(C)C[C@@H]2O[N+](=O)[O-] (stereo partly drawn) has a reported GI50 of 3.79 µM (inactive)

Lab note: `C=Cc1nc2nnc(CCCCCCCCc3nnc4nc(C=C)[nH]n34)n2[nH]1` gave GI50 of > 100 µM (inactive)

Documented GI50 of `COc1cc(C2=N/C(=C/c3cccs3)C(=O)O2)cc(OC)c1OC` : > 100 µM (inactive)

The recorded GI50 for entry CCCCCCCCCCCCCCCC(=O)OCC1OC(n2ccc(N)nc2=O)C(O)C1O (stereo not drawn) equals > 100 µM (inactive)

Record `COC(=O)[C@]1(CCC(C)=O)C(=O)C=CN([C@H](C)c2ccccc2)[C@@H]1Cc1ccc(OC)c(OCc2ccccc2)c1I` , field GI50: 16.6 µM (inactive)

# GI50 (compound: `C=CC[P@]1(=O)O[C@H](c2ccccc2)[C@H](C)N1C` ) is > 100 µM (inactive)

Sure, the documented GI50 for `FC(F)(F)C1(Cl)C(c2ccccc2)=C1c1ccccc1` is 15.6 µM (inactive)

The value of GI50 measured for the compound `Cc1cc(-c2nc3cc(F)ccc3s2)ccc1N` turned out to be 20.4 µM (inactive)

For record `O=C(CCc1n[nH]c(=S)o1)Nc1ccc(Cl)cc1Cl` the listed GI50 is > 100 µM (inactive)

The compound identified as `CC/C=C\C=C/C(=O)N/C=C/CCC` registered its GI50 at > 100 µM (inactive)

The compound CC1(C)C2C=CC1C(=O)CC2 (stereo not drawn) showed GI50 equal to > 100 µM (inactive)

Summary for this compound, COC(=O)C1SC(N(C)c2ccccc2)=NC12c1ccccc1Nc1ccccc12 (stereo not drawn) : GI50 is 18.4 µM (inactive)

Cc1ccccc1NC(=O)C(=O)C(c1cnc2ccc([N+](=O)[O-])cc2n1)[N+](=O)[O-] (stereo not drawn) yielded GI50 of > 100 µM (inactive)

----------
System: MDA-MB-231
Test: NCI tumour cell line growth inhibition, 48 h
The source made the active and inactive calls. No stated cut-off is given here; in the data, active = GI50 up to about 1.1 µM and inactive = higher.
Answer with one of the outcomes Y = active, N = inactive

Qu. Fill in: this test's call for `CSc1ccc(/C=C2\CNC/C(=C\c3ccc(SC)cc3)C2=O)cc1` is ___
Ans. N

Qu. What is the recorded call for this compound in the test? `COc1cc2c(c(OC)c1OC)-c1ccc(SC)c(=O)cc1[C@@H](OC(=O)c1ccncc1)CC2`
Ans. Y

Qu. Just curious, what result did CCCCC1(O)CC2CC1C(C)C2(C)C (stereo unspecified) get here?
Ans. N

Qu. What did this assay record as the result for `Oc1ccc2ccccc2c1C(c1ccc(Cl)cc1)c1c(O)ccc2ccccc12` ?
Ans. N

Qu. Each compound tested received a call. Report the one for CCC#CCCCCCCCCC(F)C(=O)O (stereo unspecified) .
Ans. N

Qu. Outcome? `CCOC(=O)c1c2c(n3ccccc13)C(=O)c1ccccc1C2=O`
Ans. N

----------
Test system: SF-295
Test: NCI tumour cell line growth inhibition, 48 h
Calls of active or inactive are those of the source. No stated cut-off is given here; in the data, active = GI50 up to about 1.1 µM and inactive = higher.
observed-property: GI50

Sample answers from the record:
CN(C)CCN(C)C(=O)c1cccc2cccc(C(=O)O)c12; > 100 µM (inactive)
c1ccc(-c2cccc(-c3ccccn3)n2)nc1; 0.288 µM (active)
COc1ccc2oc3c(ccc[n+]3C)c(=O)c2c1; > 100 µM (inactive)
Oc1ccc(O)c(-n2cccn2)c1; 95.1 µM (inactive)
CCCCCCCCSC(SCCCCCCCC)=C1C(=O)N(c2ccccc2)N=C1C; 36.9 µM (inactive)
COc1ccc2[nH]c(C(=O)N3CC(CCl)c4c3cc(N)c3ccccc43)cc2c1 (configuration not stated); < 0.01 µM (active)

Proceed to the following item.
For reference, reported GI50 for `CN(C(=O)C1=CCC2(CC1)OCCO2)c1ccccc1OS(=O)(=O)C(F)(F)F` stands at 90.2 µM (inactive)

----------
Below, each entry is listed with its recorded GI50.
System: OVCAR-8
Test: NCI tumour cell line growth inhibition, 48 h
Activity calls are given as the source filed them. Rule as the data show it: active = GI50 up to about 1.1 µM and inactive = higher.

Previously resolved entries follow.
CCc1cc(Cc2cc(CC)c(NC(=O)C3=CC(=O)CC(c4ccc(OC)cc4)O3)c(CC)c2Cl)c(Cl)c(CC)c1NC(=O)C1=CC(=O)CC(c2ccc(OC)cc2)O1 (stereo not drawn); 26.5 µM (inactive)
COC(=O)c1ccc2cc(O)ccc2c1; 53.2 µM (inactive)

Reported GI50 ( `CC(=O)Oc1c(OC(C)C)c(C)c(O[Si](C(C)C)(C(C)C)C(C)C)c2[nH]c3ccccc3c12` ) = > 100 µM (inactive)

// provenance: ChEMBL document CHEMBL1201862
